assayExplanation: luminescence decrease from intact luciferase reporter – cell-based, single concentration, SaOS-2, counter-screen for Mdm2/MdmX interaction inhibitor project, confirmation (AID 504607);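 further: p53-null SaOS-2 cells with luciferase driven by a doxycycline-inducible promoter; compound on cells about two nights before reading with doxycycline added after day one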
testContext: SaOS-2 full-length luciferase counterscreen, at 8 µM
In all, about 6,200 compounds went through this assay and about 4,800 (77%) were called active.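 How the source made its calls: active means mean inhibition at 8 µM reaching about 37%, which flags the compound as non-specific (limit read from the data); inactive means the rest.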 So high a share suggests a set chosen from earlier hits. Not all results are given here.
Could you please pick one outcome from this set? active, inactive

Previously resolved entries follow.
| compound | discreteLabel |
| --- | --- |
| O=C(CSc1nc2ccccc2c(=O)[nH]1)Nc1nc(-c2ccc(Br)cc2)cs1 | active |
| Cc1ccnc(NC(=O)C2CCN(S(=O)(=O)c3c(C)c(C)cc(C)c3C)CC2)c1 | active |
| C/C(=N\NC(=O)c1ccccc1F)c1ccccn1 | active |
| Cc1nnnn1/C(=C\c1ccccc1)C(=O)OCC(=O)N1CC2(C)CC1CC(C)(C)C2 (centres undefined) | active |
| FC(F)(F)c1nnc2c3ccccc3c(Cl)nn12 | active |
| CN(C)CC(O)COc1ccc(C(C)(C)c2ccc(OCC(O)CN(C)C)cc2)cc1 (centres undefined) | active |

Q: Hey, what did the test say about `COCCCNc1nc2c(-c3cccc(C)c3)nnn2c2ccc(Cl)cc12` ?
A: active

Q: Can you handle `CCOc1cc(/C=C/c2nc3ccccc3c(=O)[nH]2)cc(Br)c1OC` next?
A: active

Q: Entry to check: CC(Nc1nc(N2CCCC2)nc2ccccc12)c1ccccc1 (centres undefined)
A: active

Q: Try this compound next: `COc1ccc(OC)c(Nc2nc(-c3ccc(O)c(O)c3)cs2)c1`
A: active

Cited source for all entries: PubChem BioAssay AID504607
